Assay: solvent given as SMILES
Conditions: in ClCCl
RECORDED_METRIC: fluorescence lifetime (ns)

c1ccc2c(-n3c(-c4ccc(-c5ccc(-c6nc7c8ccccc8c8ccccc8c7n6-c6cccc7ccccc67)c6ccccc56)c5ccccc45)nc4c5ccccc5c5ccccc5c43)cccc2c1 1.87
Clc1ncc(-c2c3ccccc3c(-c3cnc(Cl)nc3)c3ccccc23)cn1 6.2
CN(C)c1ccc(-c2cc3c(s2)c(C(=O)c2ccccc2)cc(=O)n3Cc2ccccc2)cc1 1.01
COc1ccc2cc(C#Cc3ccc([N+](=O)[O-])cc3)ccc2c1 0.32

(I) CCCCCCN(CCCCCC)c1ccc(C#Cc2ccc(C#N)cc2)cc1
(II) CCCCn1c(-c2ccc(-c3nnc(-c4ccc(-c5nc6ccccc6n5CCCC)cc4)o3)cc2)nc2ccccc21
*Q* Pick one, I or II : lowest reported fluorescence lifetime. State your choice using its label.
*A* II
(II: 0.99 ns, I: 2.8 ns)

(I) CC(C)(C)c1ccc2c(c1)c1cc(C(C)(C)C)ccc1n2-c1ccc(C#Cc2ccc3c4ccc(C#Cc5ccc(-n6c7ccc(C(C)(C)C)cc7c7cc(C(C)(C)C)ccc76)cc5)cc4n(-c4ccc(C(F)(F)F)cc4)c3c2)cc1
(II) Cc1cccc2[n+]1[B-](F)(F)n1c(c3cccc4cccc1c43)=N2
*Q* Which entry has a larger number for fluorescence lifetime, I or II ? State your choice using its label.
*A* II
